Source: paper PMC3263330

Molecular target: aryl hydrocarbon receptor (mAhR) (Mus musculus, UniProt P30561)
Sequence (P30561 10-848): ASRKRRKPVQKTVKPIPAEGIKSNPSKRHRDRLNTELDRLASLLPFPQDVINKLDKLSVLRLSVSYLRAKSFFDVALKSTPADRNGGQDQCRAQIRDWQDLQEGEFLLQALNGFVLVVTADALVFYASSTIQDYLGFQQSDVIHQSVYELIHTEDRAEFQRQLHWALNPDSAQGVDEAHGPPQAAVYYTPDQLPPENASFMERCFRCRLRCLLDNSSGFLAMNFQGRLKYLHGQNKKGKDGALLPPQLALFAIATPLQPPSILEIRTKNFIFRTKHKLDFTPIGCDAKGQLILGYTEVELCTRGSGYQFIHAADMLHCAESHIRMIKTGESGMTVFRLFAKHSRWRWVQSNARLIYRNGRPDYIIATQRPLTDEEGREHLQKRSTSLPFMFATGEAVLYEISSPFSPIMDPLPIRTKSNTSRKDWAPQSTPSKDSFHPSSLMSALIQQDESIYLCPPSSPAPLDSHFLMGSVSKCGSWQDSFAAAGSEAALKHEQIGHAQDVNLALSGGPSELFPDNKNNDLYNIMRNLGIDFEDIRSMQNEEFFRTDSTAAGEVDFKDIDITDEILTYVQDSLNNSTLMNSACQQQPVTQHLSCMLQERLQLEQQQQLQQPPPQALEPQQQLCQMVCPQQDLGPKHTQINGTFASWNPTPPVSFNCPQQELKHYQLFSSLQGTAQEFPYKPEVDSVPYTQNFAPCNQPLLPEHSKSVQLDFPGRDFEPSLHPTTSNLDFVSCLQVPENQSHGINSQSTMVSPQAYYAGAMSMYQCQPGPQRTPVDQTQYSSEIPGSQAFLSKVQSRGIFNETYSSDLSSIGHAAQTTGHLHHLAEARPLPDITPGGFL
Experiment: competitive [3H]TCDD hydroxyapatite radioligand binding assay
Conditions: read-out: Experimental IC50 (M), in vitro synthesized mAhR

COMPOUND	OUTPUT UNIT	IC50
O=[N+]([O-])c1cc(C(F)(F)F)ccc1NCc1ccco1 [THS-020]	M	4.2e-06
